Test system: P. aeruginosa 43
assay_comment: In vitro antibacterial activity test (broth microdilution)
Type: cell-based
reported_conditions: Pseudomonas aeruginosa, 43
metric_name: MIC90 (µg/mL)
Numbers only here, please. The scale is µg/mL.

CC(C)(O/N=C(\C(=O)N[C@@H]1C(=O)N2C(C(=O)[O-])=C(C[n+]3cnc(N)c(NCCNC(=N)N)c3)CSC12)c1csc(N)n1)C(=O)O (some centres unmarked)    32

Let us examine a further case.
Lookup: For C[C@H](O/N=C(\C(=O)N[C@@H]1C(=O)N2C(C(=O)[O-])=C(C[n+]3cnc(NCCN)c(NCCNC(=O)c4cc(=O)c(O)cn4O)c3)CSC12)c1nc(N)sc1Cl)C(=O)O (some centres unmarked) , write its MIC90.
Found: 2

----------
In this section we review reported MIC90 values for a set of compounds.
Test system: P. aeruginosa 43
assay_comment: In vitro antibacterial activity test (broth microdilution)
Assay type: cell-based
reported_conditions: Pseudomonas aeruginosa; P. aeruginosa 43; read-out: MIC90
Numbers only here, please. The scale is µg/mL.

CN(CCNc1c[n+](CC2=C(C(=O)[O-])N3C(=O)[C@@H](NC(=O)/C(=N\OC(C)(C)C(=O)O)c4csc(N)n4)C3SC2)cnc1N)Cc1ccc(O)c(O)c1 (some centres unmarked)    4
CN(CCNc1c[n+](CC2=C(C(=O)[O-])N3C(=O)[C@@H](NC(=O)/C(=N\OC(C)(C)C(=O)O)c4csc(N)n4)C3SC2)cnc1N)C(=O)c1ccc(O)c(O)c1 (some centres unmarked)    1

Lookup: For CC(C)(O/N=C(\C(=O)N[C@@H]1C(=O)N2C(C(=O)[O-])=C(C[n+]3cnc(N)c(NCCNC(=O)c4ccc(O)c(O)c4)c3)CSC12)c1csc(N)n1)C(=O)O (some centres unmarked) , write its MIC90.
Found: 0.5

Lookup: For Cn1cc(O)c(=O)cc1C(=O)NCCNc1c[n+](CC2=C(C(=O)[O-])N3C(=O)[C@@H](NC(=O)/C(=N\OC(C)(C)C(=O)O)c4csc(N)n4)C3SC2)cnc1N (some centres unmarked) , write its MIC90.
Found: 8

Lookup: For CC(C)(O/N=C(\C(=O)N[C@@H]1C(=O)N2C(C(=O)[O-])=C(C[n+]3cnc(N)c(NC(=O)CCNC(=O)c4cc(=O)c(O)cn4O)c3)CSC12)c1nsc(N)n1)C(=O)O (some centres unmarked) , write its MIC90.
Found: 2

Lookup: For C[C@H](O/N=C(\C(=O)N[C@@H]1C(=O)N2C(C(=O)[O-])=C(C[n+]3cnc(N)c(NCCNC(=O)c4cc(=O)c(O)cn4O)c3)CSC12)c1csc(N)n1)C(=O)O (some centres unmarked) , write its MIC90.
Found: 0.25

Lookup: For CC(C)(O/N=C(\C(=O)N[C@@H]1C(=O)N2C(C(=O)[O-])=C(C[n+]3cnc(N)c(NCCCCNC(=O)c4cc(=O)c(O)cn4O)c3)CSC12)c1csc(N)n1)C(=O)O (some centres unmarked) , write its MIC90.
Found: 0.25

----------
In this section we review reported number of clinical isolates that showed the respective MIC value values for a set of molecules.
System: K. pneumoniae (38 clinical isolates)
assay_comment: Antibacterial activity on representative drug-resistance bacteria: number of clinical isolates per MIC value
Type: cell-based
reported_conditions: MIC 2 ug/mL; K. pneumomiae (N = 38)

Record excerpt, results attached:
CC(C)(O/N=C(\C(=O)N[C@@H]1C(=O)N2C(C(=O)[O-])=C(/C=C/C[n+]3cnc(N)c(NCCNC(=O)c4cc(=O)c(O)cn4O)c3)CSC12)c1nc(N)sc1Cl)C(=O)O (some centres unmarked)    1
C[C@@H](O)[C@H]1C(=O)N2C(C(=O)O)=C(S[C@@H]3CN[C@H](CNS(N)(=O)=O)C3)[C@H](C)[C@H]12 [Doripenem, reference compound]    5
C[C@H](O/N=C(\C(=O)N[C@@H]1C(=O)N2C(C(=O)[O-])=C(C[n+]3cnc(N)c(NCCNC(=O)c4cc(=O)c(O)cn4O)c3)CSC12)c1nc(N)sc1Cl)C(=O)O (some centres unmarked)    3
Cn1c(N)c(NC(=O)NCCN)c[n+]1CC1=C(C(=O)O)N2C(=O)[C@@H](NC(=O)/C(=N\OC(C)(C)C(=O)[O-])c3nsc(N)n3)[C@H]2SC1 [CXA-101, reference compound]    1

Let us examine a further case.
Lookup: GET number of clinical isolates that showed the respective MIC value | system: K. pneumoniae (38 clinical isolates) | item: CC(C)(O/N=C(\C(=O)N[C@@H]1C(=O)N2C(C(=O)[O-])=C(/C=C/C[n+]3cnc(N)c(NCCNC(=O)c4cc(=O)c(O)cn4O)c3)CSC12)c1csc(N)n1)C(=O)O (some centres unmarked)
Found: 1

// provenance: patent US9630977B2
